Data provenance: patent US20230390406A1

Target: human cathepsin B (Homo sapiens)
Construct: purchased Sino Biological
Test: Cleavage of AMC-peptides by cathepsin B (HPLC, 350 nm)
Format: biochemical
Settings: pH 5, 37° C., up to 6 hrs
Where a SMILES comes first, the peptide text is derived from it.
measurement kind: stability / cleavage in the presence of cathepsin B

INSERT INTO assay_data (compound, value) VALUES
  ('CCCC[C@H](NC(=O)[C@H](CO)NC(=O)[C@H](CCCCNC(C)=O)NC(=O)[C@H](CO)NC(=O)CCNC(C)=O)C(=O)Nc1ccc2c(C)cc(=O)oc2c1 [AO, Ac-A′SK(Ac) SnL-AMC] (HELM PEPTIDE1{[ac].[bAla].S.K.S.[Nle].[Cc1cc(=O)oc2cc(N[*:1])ccc12]}|PEPTIDE2{[ac]}$PEPTIDE1,PEPTIDE2,4:R3-1:R2$$$V2.0)', 'readily cleaved'),
  ('CCC(NC(=O)[C@H](CO)NC(=O)[C@H](CCCCNC(C)=O)NC(=O)[C@H](CO)NC(=O)CCNC(C)=O)C(=O)Nc1ccc2c(C)cc(=O)oc2c1 (stereo partly shown) [Compound AK, Ac-A′SK(Ac) SB-AMC] (HELM PEPTIDE1{[ac].[bAla].S.K.S.[CCC(N[*:1])C(=O)[*:2]].[Cc1cc(=O)oc2cc(N[*:1])ccc12]}|PEPTIDE2{[ac]}$PEPTIDE1,PEPTIDE2,4:R3-1:R2$$$V2.0)', 'readily cleaved');
